System: 521955-158-R2-J5-PDC complex spheroids, viability;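 note: spheroids also contain HUVEC endothelial cells and mesenchymal stem cells as stroma; compound exposure lasted seven days before the viability read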
Assay summary: Anticancer human tumor 521955-158-R2-J5-PDC patient-derived pancreatic carcinoma cell line growth inhibition [RAS]
Measurement setup: second compound 1 µM; first compound 0.1 µM; hits give low values
Parameter: viability, T/C. Scope: all listed entries.
Test readout: viability, T/C (%)

CC(Nc1ccc2c(c1)OCCn1cc(N3C(=O)OCC3C(F)F)nc1-2)C(N)=O (stereo not given) + C#Cc1c(F)ccc2cc(O)cc(-c3ncc4c(N5CC6CCC(C5)N6)nc(OCC56CCCN5CC(F)C6)nc4c3F)c12 :: 28.7
Cc1nc(N2CCC3(CC2)COC(C)C3N)c(CO)nc1Sc1ccnc(N)c1Cl (stereo not given) + C#Cc1c(F)ccc2cc(O)cc(-c3ncc4c(N5CC6CCC(C5)N6)nc(OCC56CCCN5CC(F)C6)nc4c3F)c12 :: 42.9
CC(=O)OC12COC1CC(O)C1(C)C(=O)C(O)C3=C(C)C(OC(=O)C(O)C(NC(=O)OC(C)(C)C)c4ccccc4)CC(O)(C(OC(=O)c4ccccc4)C21)C3(C)C (stereo not given) + C#Cc1c(F)ccc2cc(O)cc(-c3ncc4c(N5CC6CCC(C5)N6)nc(OCC56CCCN5CC(F)C6)nc4c3F)c12 :: 34.3
Nc1ccn(C2OC(CO)C(O)C2(F)F)c(=O)n1 (stereo not given) + C=CC(=O)N1CCN(c2nc(OCC3CCCN3C)nc3c(F)c(-c4nc(N)cc(C)c4C(F)(F)F)c(Cl)cc23)C(C)C1 :: 63
C[C@@H](NC(=O)c1ncnc(N)c1Cl)c1ncc(C(=O)Nc2cc(C(F)(F)F)c(Cl)cn2)s1 + C#Cc1c(F)ccc2cc(O)cc(-c3ncc4c(N5CC6CCC(C5)N6)nc(OCC56CCCN5CC(F)C6)nc4c3F)c12 :: 48.4
